Examples of compounds with documented IC50 follow.
# target-desc: AHR (UniProt P35869)
# test: DRE-Luciferase Reporter Assay (Alternate Method), Example 1B
# protocol-conditions: concentration which inhibits half of the luciferase activity induced by AHR activating ligand; DRE-luciferase reporter cell line
# Protocol: AHR binds to Dioxin Responsive Elements (DRE) upstream of genes that it activates. One measure of AHR activity is activation of a reporter gene, such as luciferase, downstream of one or multiple DRE elements. […] Cells were incubated for 4, 15 or 24 hours or another time point and then lysed for determination of luciferase activity as a read-out of the AHR activation or inhibition. […] IC50 values were determined as the concentration which inhibits half of the luciferase activity.
readout-label: IC50

[[record]]
compound = "CC(C)c1cnn2c(N[C@H]3CCc4[nH]c5c(O)cccc5c4C3)nc(-c3cncc(F)c3)nc12 [Compound I-24b]"
value_reported = "> 1500 nM"

[[record]]
compound = "CC(C)c1cnn2c(N[C@H]3CCc4[nH]c(=O)ccc4C3)nc(-c3cncc(F)c3)nc12 [Compound I-36b]"
value_reported = "> 1500 nM"

[[record]]
compound = "CC(C)c1cnn2c(N[C@@H]3CCc4[nH]c5ccccc5c4C3)nc(-n3cncn3)nc12"
value_reported = "> 1500 nM"

[[record]]
compound = "CC(C)c1cnn2c(N[C@@H]3CCc4[nH]c5cnccc5c4C3)nc(-c3cncc(F)c3)nc12 [Compound I-13a]"
value_reported = "> 1500 nM"

[[record]]
compound = "C[C@H](CO)c1cnn2c(N[C@@H]3CCc4[nH]c5ccccc5c4C3)nc(-c3cncc(F)c3)nc12 [Compound I-25b]"
value_reported = "< 500 nM"

[[record]]
compound = "NCc1cnn2c(N[C@@H]3CCc4[nH]c5ccccc5c4C3)nc(-c3cncc(F)c3)nc12"
value_reported = "< 500 nM"

[[record]]
compound = "CC(C)c1cnn2c(N[C@H]3Cc4[nH]cnc4NC3=O)nc(-c3cncc(F)c3)nc12 [Compound I-62a]"
value_reported = "> 1500 nM"

[[record]]
compound = "CC(C)c1cnn2c(N[C@@H]3CCc4[nH]c(=O)ccc4C3)nc(-c3cncc(F)c3)nc12 [Compound I-36a]"
value_reported = "> 1500 nM"

[[record]]
compound = "Fc1cncc(-c2nc(N[C@@H]3CCc4[nH]c5ccccc5c4C3)n3ncc(N4CCOCC4)c3n2)c1"
value_reported = "< 500 nM"

[[record]]
compound = "CC(C)c1cnn2c(N[C@H]3CCc4[nH]c5cc(O)ccc5c4C3)nc(-c3cncc(F)c3)nc12 [Compound I-27b]"
value_reported = "> 1500 nM"

[[record]]
compound = "COC[C@@H](C)c1cnn2c(N[C@@H]3CCc4[nH]c5ccccc5c4C3)nc(-c3cncc(F)c3)nc12 [Compound I-64b]"
value_reported = "< 500 nM"

[[record]]
compound = "CC(C)c1cnn2c(NCCCCO)nc(-c3cnsc3)nc12"
value_reported = "> 1500 nM"

[[record]]
compound = "CC(C)c1cnn2c(N[C@@H]3Cc4[nH]cnc4NC3=O)nc(-c3cncc(F)c3)nc12 [Compound I-62b]"
value_reported = "> 1500 nM"

[[record]]
compound = "CC(C)c1cnn2c(N[C@H]3CCc4c(cc[nH]c4=O)C3)nc(-c3cncc(F)c3)nc12 [Compound I-66b]"
value_reported = "> 1500 nM"

[[record]]
compound = "COC[C@H](C)c1cnn2c(N[C@@H]3CCc4[nH]c5ccccc5c4C3)nc(-c3cncc(F)c3)nc12 [Compound I-64a]"
value_reported = "< 500 nM"

